# System: SF-295
# Experimental Protocol: NCI tumour cell line growth inhibition, 48 h
The source made the active and inactive calls. No stated cut-off is given here; in the data, active = GI50 up to about 1.1 µM and inactive = higher.
GI50 values, listed per item
Observable: GI50

CCCCC1Cc2cc(O)ccc2-c2n1c1cc(O)ccc1[n+]2C.CCCCC1Cc2cc(O)ccc2-c2n1c1ccc(O)cc1[n+]2C (stereo not given) :: 4.82 µM (inactive)
CC(C)NC(=O)CN1CCN(C2=C(Cl)C(=O)c3c(O)ccc(O)c3C2=O)CC1 :: 7.1 µM (inactive)
CCc1n[nH]c(=O)n1/N=C/c1ccc(/C=N/n2c(CC)n[nH]c2=O)cc1 :: > 100 µM (inactive)
Cc1cc2c3ccccc3n(C)c2c2c1C(=O)C=CC2=O :: 27.7 µM (inactive)
CC(=O)OCC1OC(Nn2c(=O)[nH]c3ccccc3c2=O)C(OC(C)=O)C(OC(C)=O)C1OC(C)=O (stereo not given) :: > 100 µM (inactive)
